TEST TARGET: BACE1 (Homo sapiens, UniProt P56817)
Construct: recombinant BACE1 protein in a final concentration of 1 μg/ml
Sequence (P56817 46-501): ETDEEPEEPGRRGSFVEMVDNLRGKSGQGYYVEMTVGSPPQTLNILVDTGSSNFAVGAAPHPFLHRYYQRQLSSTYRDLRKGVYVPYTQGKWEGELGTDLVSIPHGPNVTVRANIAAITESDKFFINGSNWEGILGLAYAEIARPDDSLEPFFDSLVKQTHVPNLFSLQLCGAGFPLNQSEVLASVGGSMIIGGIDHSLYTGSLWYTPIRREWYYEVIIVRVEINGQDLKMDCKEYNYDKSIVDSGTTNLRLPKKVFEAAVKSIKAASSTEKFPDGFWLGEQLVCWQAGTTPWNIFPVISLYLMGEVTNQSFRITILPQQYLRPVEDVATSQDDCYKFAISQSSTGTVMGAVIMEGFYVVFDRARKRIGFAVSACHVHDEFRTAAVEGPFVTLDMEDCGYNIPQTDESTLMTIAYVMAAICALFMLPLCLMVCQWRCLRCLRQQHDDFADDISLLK
TEST SUMMARY: BACE1 biochemical FRET based assay
STATED CONDITIONS: Method 1: recombinant BACE1 1 μg/ml, 120 min at room temperature, pH 5.0; read-out: Biochemical FRET based assay pIC50 (converted)
REPORTED ENDPOINT: IC50 (nM)

Answered cases to consult:
CC1(C#N)CC2C(C(F)(F)F)OCC2(c2cc(NC(=O)c3cnc(-n4cncn4)cn3)ccc2F)N=C1N (single isomer, unassigned) [34a]    6.31
CC1OCC2(c3cc(NC(=O)c4ccc(OC(F)F)cn4)ccc3F)N=C(N)C(C)(C#N)CC12 (single isomer, unassigned) [35b]    741
CC1OCC2(c3cc(NC(=O)c4cnc(OCF)cn4)cc(F)c3F)N=C(N)C(C)(C#N)CC12 (single isomer, unassigned) [31a]    66.1
C[C@@]1(C#N)C[C@@H]2[C@@H](CF)OC[C@]2(c2cc(NC(=O)c3cnc(OCF)cn3)ccc2F)N=C1N [22a]    4.79
Cc1cc(C#N)cnc1C(=O)Nc1ccc(F)c(C23COC(C(C)(F)F)C2CC(C)(C#N)C(N)=N3)c1 (stereo not shown)    1.91

1 = CC(C)(F)[C@H]1OC[C@]2(c3cc(NC(=O)c4ccc(C#N)cn4)ccc3F)N=C(N)[C@@](C)(C#N)C[C@H]12 [21b]
2 = CC(F)(F)[C@H]1OC[C@]2(c3cc(NC(=O)c4cnc(OCF)cn4)ccc3F)N=C(N)[C@](C)(C#N)C[C@H]12
3 = CC1OCC2(c3cc(NC(=O)c4ccc(C#N)cn4)cc(F)c3F)N=C(N)C(C)(C#N)CC12 (single isomer, unassigned) [33b]
4 = COc1cc(C(=O)Nc2ccc(F)c([C@]34CO[C@H](C(C)(F)F)[C@H]3C[C@@](C)(C#N)C(N)=N4)c2)ncn1 [18a]
Q: Please give the order of these compounds when sorted by IC50, largest value leading. Respond with an ordered listing of the labels, as requested.
A: 4, 1, 3, 2
(4: 24.5 nM, 1: 10.5 nM, 3: 5.5 nM, 2: 2.24 nM)
